Attribute: EC50
target: T1, native mouse MET on living cells (mouse, UniProt P16056 25-1379); experiment: flow cytometry, MLP29 cells
T1 construct: whole, on cells; also called Mouse cells (MLP29); mouse epithelial cells expressing MET
Give the number; nM is assumed, so skip it.

* 71G12 chimeric llama-human IgG1 mAb (antibody, V domains shown, llama VH on human IgG1 CH1-CH2-CH3, llama VL on human kappa CL) VH: QVQLQESGGDLVQPGGSLRVSCVVSGFTFSRYYMSWVRQAPGKGLEWVSSIDSYGYSTYYTDSVKGRFTISRDNAKNTLYLQMNSLKPEDTALYYCARAKTTWSYDYWGQGTQVTVSS VL: EIVLTQSPSSVTASVGGKVTINCKSSQSVFIASNQKTYLNWYQQRPGQSPRLVISYASTRESGIPDRFSGSGSTTDFTLTISSVQPEDAAVYYCQQAYSHPTFGQGTKVELK | 2.54

Now consider the entry below.
// query Using the record for 76H10 chimeric llama-human IgG1 mAb (antibody, V domains shown, llama VH on human IgG1 CH1-CH2-CH3, llama VL on human lambda CL) VH: QLQLVESGGGLVQPGGSLRVSCTASGFTFNTYYMTWVRQAPGKGLEWVSDINSGGGTYYADSVKGRFTISRDNAKNTLYLQMNSLKPEDTALYYCVRVRIWPVGYDYWGQGTQVTVSS VL: QAVVTQEPSLSVSPGGTVTLTCGLSSGSVTTSNYPGWFQQTPGQAPRTLIYNTNNRHSGVPSRFSGSISGNKAALTITGAQPEDEADYYCSLYTGSYTTVFGGGTHLTVL , report its EC50.
// result 1.6
